measured-target: Carboanhydrase IX (Homo sapiens, UniProt Q16790 38-459)
test-details: cell-based or functional assay
measured-parameter: EC50 (nM) HT29

INSERT INTO assay_data (binder, unit_of_measurement, comparator, measured) VALUES
  ('Example 295 (antibody, human IgG1, kappa, V domains shown, linker-toxophore on cysteine S) VH: QVELVESGGGLVQPGGSLRLSCAASGFTFSSYGMSWVRQAPGKGLEWVSGISSLGSTTYYADSVKGRFTISRDNSKNTLYLQMNSLRAEDTAVYYCARTGSPGTFMHGDHWGQGTLVTVSS VL: DIQMTQSPSSLSASVGDRVTITCRASQDINNYLSWYQQKPGKAPKLLIYGASNLQSGVPSRFSGSGSGTDFTLTISSLQPEDFAVYYCQQYYGRPTTFGQGTKVEIKR', 'nM', '>', 100),
  ('Example 299 (antibody, human IgG1, kappa, V domains shown, linker-toxophore on cysteine S) VH: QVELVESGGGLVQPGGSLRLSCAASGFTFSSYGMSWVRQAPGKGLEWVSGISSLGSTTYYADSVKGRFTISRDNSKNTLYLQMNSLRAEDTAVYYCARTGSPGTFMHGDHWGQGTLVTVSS VL: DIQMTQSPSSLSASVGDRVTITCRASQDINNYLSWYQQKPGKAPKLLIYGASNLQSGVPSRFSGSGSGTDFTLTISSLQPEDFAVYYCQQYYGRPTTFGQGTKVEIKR', 'nM', '=', 4.1),
  ('Example 292 (antibody, human IgG1, kappa, V domains shown, linker-toxophore on cysteine S) VH: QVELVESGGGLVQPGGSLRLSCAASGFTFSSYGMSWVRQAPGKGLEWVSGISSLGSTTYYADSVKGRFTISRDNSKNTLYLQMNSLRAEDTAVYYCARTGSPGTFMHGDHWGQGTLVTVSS VL: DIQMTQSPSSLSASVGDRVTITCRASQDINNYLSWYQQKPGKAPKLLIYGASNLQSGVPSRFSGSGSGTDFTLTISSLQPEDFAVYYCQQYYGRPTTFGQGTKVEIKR', 'nM', '=', 223),
  ('Example 293 (antibody, human IgG1, kappa, V domains shown, linker-toxophore on cysteine S) VH: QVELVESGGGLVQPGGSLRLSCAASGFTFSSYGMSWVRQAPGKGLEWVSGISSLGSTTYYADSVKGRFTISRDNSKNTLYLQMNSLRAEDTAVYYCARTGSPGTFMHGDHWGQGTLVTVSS VL: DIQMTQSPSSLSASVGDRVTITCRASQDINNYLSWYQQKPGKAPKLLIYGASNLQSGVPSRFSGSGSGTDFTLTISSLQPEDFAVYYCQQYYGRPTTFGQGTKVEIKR', 'nM', '=', 0.1),
  ('Example 302 (antibody, human IgG1, kappa, V domains shown, linker-toxophore on cysteine S) VH: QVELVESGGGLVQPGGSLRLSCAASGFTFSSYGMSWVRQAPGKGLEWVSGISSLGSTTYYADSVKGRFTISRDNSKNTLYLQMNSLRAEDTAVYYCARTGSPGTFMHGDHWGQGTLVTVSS VL: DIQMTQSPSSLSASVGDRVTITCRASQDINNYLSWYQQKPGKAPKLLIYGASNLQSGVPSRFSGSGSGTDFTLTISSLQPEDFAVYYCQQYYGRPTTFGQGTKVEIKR', 'nM', '>', 30);
